# PROCEDURE SUMMARY: E. coli DRC41 culture turbidity changes, primary screen, E. coli filamentation inducer project, strain DRC41, OD650, 48 h (AID 1152);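 further: E. coli MC1000 strain DRC41 lacking acrAB efflux pump and sulA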
# REPORTED CONDITIONS: E. coli DRC41 (acrAB sulA), higher = more signal, called active from +8 up or from −8 down
PROPERTY: z-score
Give the figure only, with no unit attached.

The measured z-score associated with "CCCC[C@@H]1C[C@H]1[C@@H](NC(=O)Cc1ccccc1)c1ccc(-c2ccccc2)cc1" reads -0.71

More entries:
The measured z-score associated with CC[C@H]1C2=C3C(CC[C@H]4C(OCc5ccc(F)cc5C(F)(F)F)OC[C@](C)([C@@H]34)N(C(=O)OC(C)(C)C)C2)C(COC)C1COC (stereo partly drawn) reads -1.22

The measured z-score associated with "COCCOC(=O)N1C(=O)[C@@]2(c3cc(C#CC4=CCCCC4)ccc31)[C@H](c1ccc(OCCO)cc1)N1[C@H](c3ccccc3)[C@H](c3ccccc3)OC(=O)[C@H]1[C@@H]2C(=O)NC[C@H](O)c1ccccc1" reads -0.149

The reported numbers originate from PubChem BioAssay.
